- Test system: Rattus norvegicus
- assay-remarks: Cardiotoxicity in anesthetized Sprague-Dawley rat assessed as decrease in heart rate at 3 mg/kg, iv measured for 30 mins relative to control
- Type: toxicity, organism-based
- Set-up: scale not given: the % may be the effect or the level left
- settings: in vivo, 0.5 h
observed-property: Activity (%)
Numbers only, in %.

[
  {
    "structure": "CC(C)c1n[nH]c2cc(OCCNC[C@H](O)c3cccc(NS(C)(=O)=O)c3)ccc12",
    "Activity (%)": 1.8
  },
  {
    "structure": "CS(=O)(=O)Nc1cccc([C@@H](O)CNCCOc2ccc3c(C4CC4)n[nH]c3c2)c1",
    "Activity (%)": 3.3
  }
]

Give Activity for each of the items listed below.
1. Cc1n[nH]c2cc(OCCNC[C@H](O)c3cccc(NS(C)(=O)=O)c3)ccc12
2. CCc1n[nH]c2cc(OCCNC[C@H](O)c3cccc(NS(C)(=O)=O)c3)ccc12

Reply |
1: 8.8; 2: 1.6

###

- study-target: Beta-3 adrenergic receptor (Homo sapiens)
- Sequence (P13945 whole entry): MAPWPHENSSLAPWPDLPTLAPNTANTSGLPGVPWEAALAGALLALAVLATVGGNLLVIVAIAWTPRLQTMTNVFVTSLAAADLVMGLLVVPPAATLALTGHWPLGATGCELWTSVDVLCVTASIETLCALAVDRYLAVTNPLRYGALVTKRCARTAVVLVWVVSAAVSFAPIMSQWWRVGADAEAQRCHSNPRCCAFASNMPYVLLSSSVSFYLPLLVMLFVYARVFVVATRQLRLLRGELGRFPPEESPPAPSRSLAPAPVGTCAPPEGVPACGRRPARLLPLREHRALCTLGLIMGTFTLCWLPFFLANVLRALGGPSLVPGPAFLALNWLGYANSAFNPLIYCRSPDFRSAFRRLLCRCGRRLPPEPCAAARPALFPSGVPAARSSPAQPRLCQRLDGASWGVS
- assay-remarks: Agonist activity at human recombinant beta3-adrenergic receptor expressed in CHO cells assessed as increase of cAMP level after 30 mins
Exercise: for every item that follows, state its recorded EC50.
One number for each entry, in µM.

Give EC50 for each of the items listed below.
1. COc1n[nH]c2cc(OCCNC[C@H](O)c3cccc(NS(C)(=O)=O)c3)ccc12
2. CS(=O)(=O)Nc1cccc([C@@H](O)CNCCOc2ccc3c(C(F)(F)F)n[nH]c3c2)c1
3. CS(=O)(=O)Nc1cccc([C@@H](O)CNCCOc2ccc3c(C4CCC4)n[nH]c3c2)c1

Reply |
[0.04, 0.064, 0.066]

Give EC50 for each of the items listed below.
1. Cc1n[nH]c2cc(OCCNC[C@H](O)c3cccc(NS(C)(=O)=O)c3)ccc12
2. CCOc1n[nH]c2cc(OCCNC[C@H](O)c3cccc(NS(C)(=O)=O)c3)ccc12

Reply |
1: 0.021; 2: 0.071

###

- study-target: Beta-2 adrenergic receptor (Homo sapiens, UniProt P07550)
- Sequence (P07550 whole entry): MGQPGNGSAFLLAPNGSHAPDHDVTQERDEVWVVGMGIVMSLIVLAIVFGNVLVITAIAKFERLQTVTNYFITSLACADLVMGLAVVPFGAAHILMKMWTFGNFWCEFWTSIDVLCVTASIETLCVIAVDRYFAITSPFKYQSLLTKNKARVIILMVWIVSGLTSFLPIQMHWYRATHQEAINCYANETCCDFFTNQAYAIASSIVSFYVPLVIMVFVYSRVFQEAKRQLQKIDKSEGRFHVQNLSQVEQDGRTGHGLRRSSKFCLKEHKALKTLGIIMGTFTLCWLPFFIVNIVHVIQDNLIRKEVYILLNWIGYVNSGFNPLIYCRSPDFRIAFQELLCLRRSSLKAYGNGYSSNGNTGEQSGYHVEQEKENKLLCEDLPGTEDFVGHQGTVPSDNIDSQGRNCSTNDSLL
- assay-remarks: Agonist activity at human beta2-adrenergic receptor expressed in CHO cells assessed as increase of cAMP level after 30 mins
- Assay type: functional, cell-based
Exercise: for every item that follows, state its recorded EC50.

As a guide, the following entries are already answered.
[
  {
    "structure": "CCc1n[nH]c2cc(OCCNC[C@H](O)c3cccc(NS(C)(=O)=O)c3)ccc12",
    "EC50": "> 10 µM"
  },
  {
    "structure": "CS(=O)(=O)Nc1cccc([C@@H](O)CNCCOc2ccc3c(C4CC4)n[nH]c3c2)c1",
    "EC50": "> 10 µM"
  },
  {
    "structure": "CC(C)c1n[nH]c2cc(OCCNC[C@H](O)c3cccc(NS(C)(=O)=O)c3)ccc12",
    "EC50": "> 10 µM"
  }
]

EC50 for `Cc1n[nH]c2cc(OCCNC[C@H](O)c3cccc(NS(C)(=O)=O)c3)ccc12` is > 10 µM

###

- study-target: Alpha-1A adrenergic receptor (Homo sapiens)
- assay-remarks: Intrinsic activity at human alpha1A-adrenergic receptor expressed in HEK293 cells assessed as calcium flux by fluorescence assay relative to norepinephrine
- Assay type: functional, cell-based
Output MET for records whose Intrinsic activity is lower than 30%, NOT MET for records at or above 30%.

Reference set, count: 3
[
  {
    "structure": "CS(=O)(=O)Nc1cccc([C@@H](O)CNCCOc2ccc3c(-c4ccccc4)n[nH]c3c2)c1",
    "label-class": "MET"
  },
  {
    "structure": "Cc1n[nH]c2cc(OCCNC[C@H](O)c3cccc(NS(C)(=O)=O)c3)ccc12",
    "label-class": "NOT MET"
  },
  {
    "structure": "CS(=O)(=O)Nc1cccc([C@@H](O)CNCCOc2ccc3c(Cl)n[nH]c3c2)c1",
    "label-class": "NOT MET"
  }
]

Ask | I'd appreciate it if you could check whether `CCc1n[nH]c2cc(OCCNC[C@H](O)c3cccc(NS(C)(=O)=O)c3)ccc12` has Intrinsic activity smaller than 30%.
Reply | NOT MET

Ask | I'd appreciate it if you could check whether `CS(=O)(=O)Nc1cccc([C@@H](O)CNCCOc2ccc3c(C(F)(F)F)n[nH]c3c2)c1` has Intrinsic activity smaller than 30%.
Reply | NOT MET

Ask | I'd appreciate it if you could check whether `CS(=O)(=O)Nc1cccc([C@@H](O)CNCCOc2ccc3c(C4CC4)n[nH]c3c2)c1` has Intrinsic activity smaller than 30%.
Reply | MET

Ask | I'd appreciate it if you could check whether `CCOc1n[nH]c2cc(OCCNC[C@H](O)c3cccc(NS(C)(=O)=O)c3)ccc12` has Intrinsic activity smaller than 30%.
Reply | NOT MET
